Values were extracted from patent US11999727B2.

tested-system: PRMT5 (Homo sapiens)
Construct: purchased Viva (custom protein)
assay-explanation: PRMT5 biochemical IC50 assay with no cofactor
condition-details: PRMT5, no cofactor; read-out: No Cofactor/rel IC50
metric-name: IC50

In [3]: df
Out[3]:
                                   compound  metric_name    data_value
0  CCc1cc(NC(=O)C(=O)N2C[C@@H](C)CC[C@@H]2c2ccc(NC(C)=O)cc2)cnc1N (single isomer, unassigned)         IC50       < 50 nM
1  C[C@@H]1CC[C@@H](c2ccc(F)cc2)N(C(=O)C(=O)Nc2cncc(C(N)=O)c2)C1         IC50      > 500 nM
2  Cc1ccc([C@@H]2CC(F)(F)[C@@H](C)CN2C(=O)C(=O)Nc2cncc(C(N)=O)c2)cn1 (single isomer, unassigned)         IC50      > 500 nM
3  CNc1nc2cc([C@@H]3CC[C@@H](C)CN3C(=O)C(=O)Nc3cnc(N)c(C)c3)ccc2s1 (single isomer, unassigned)         IC50      > 500 nM
4  C[C@H]1CN(C(=O)C(=O)Nc2cnc(N)c(C3CC3)c2)[C@H](c2ccc3scnc3c2)CC1(F)F (single isomer, unassigned)         IC50  50 to 500 nM

Sample C[C@@H]1CN(C(=O)C(=O)Nc2cncc(C(N)=O)c2)C[C@H]2CCCC[C@H]21 (racemic) ; IC50 observed: > 500 nM

Reported IC50 ( Cc1cc(NC(=O)C(=O)N2C[C@H](C)CC[C@H]2c2ccc(-c3ccn[nH]3)cc2)cnc1N (racemic) [Compound 526] ) = 50 to 500 nM

Reported IC50 of CCc1cc(NC(=O)C(=O)N2C[C@H](C)CC[C@H]2c2ccc(NC(C)=O)nc2)cnc1N (single isomer, unassigned) : > 500 nM

Item: Cc1cc(NC(=O)C(=O)N2C[C@H](C)CC[C@H]2c2cc3[nH]ncc3s2)cnc1N (single isomer, unassigned) [Compound 826] | IC50: > 500 nM

====

tested-system: PRMT5 (Homo sapiens, UniProt O14744)
Construct: purchased Viva (custom protein)
Sequence (O14744 whole entry): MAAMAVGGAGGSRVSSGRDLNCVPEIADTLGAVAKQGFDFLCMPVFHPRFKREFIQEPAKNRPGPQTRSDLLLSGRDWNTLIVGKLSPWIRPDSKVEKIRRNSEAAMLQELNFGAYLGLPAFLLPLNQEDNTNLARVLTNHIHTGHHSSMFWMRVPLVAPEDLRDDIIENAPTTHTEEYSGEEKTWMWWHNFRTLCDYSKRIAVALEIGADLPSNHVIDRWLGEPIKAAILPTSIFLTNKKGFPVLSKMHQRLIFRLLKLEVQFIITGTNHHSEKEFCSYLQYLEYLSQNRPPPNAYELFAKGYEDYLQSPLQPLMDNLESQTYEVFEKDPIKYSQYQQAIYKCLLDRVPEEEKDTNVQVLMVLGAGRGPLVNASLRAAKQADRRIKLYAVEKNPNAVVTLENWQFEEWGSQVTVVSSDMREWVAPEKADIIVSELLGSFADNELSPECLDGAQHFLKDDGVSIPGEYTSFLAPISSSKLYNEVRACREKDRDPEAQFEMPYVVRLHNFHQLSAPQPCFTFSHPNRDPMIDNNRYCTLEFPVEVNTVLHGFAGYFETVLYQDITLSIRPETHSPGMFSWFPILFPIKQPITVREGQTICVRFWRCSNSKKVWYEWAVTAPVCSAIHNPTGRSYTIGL
Sequence (Q9BQA1 whole entry partner): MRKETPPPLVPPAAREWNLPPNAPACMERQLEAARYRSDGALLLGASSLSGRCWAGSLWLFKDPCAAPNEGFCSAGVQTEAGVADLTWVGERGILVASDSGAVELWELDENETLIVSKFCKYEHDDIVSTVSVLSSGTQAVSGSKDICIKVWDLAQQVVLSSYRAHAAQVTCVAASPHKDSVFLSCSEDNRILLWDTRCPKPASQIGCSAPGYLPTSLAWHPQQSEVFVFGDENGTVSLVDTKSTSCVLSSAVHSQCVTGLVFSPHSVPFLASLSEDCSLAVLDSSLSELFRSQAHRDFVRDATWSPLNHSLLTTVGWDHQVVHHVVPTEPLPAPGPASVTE
assay-explanation: PRMT5 biochemical IC50 assay with SAM as cofactor
condition-details: PRMT5, SAM as cofactor; read-out: SAM IC50
metric-name: IC50

Recorded IC50, per entry:
>>> df
                                   compound  data_value
0  Cc1cc(NC(=O)C(=O)N2C[C@@H](C)CC[C@@H]2c2cccc(C(F)(F)F)c2)cnc1N (single isomer, unassigned) [Compound 507]    > 500 nM
1  Cc1cc(NC(=O)C(=O)N2C[C@H](C)CC[C@H]2c2cnc3scnc3c2)cnc1N (racemic) [Compound 685]    > 500 nM

Please turn your attention to the following entry.
// sample COc1ncc(NC(=O)C(=O)N2C[C@@H](C)CC[C@@H]2c2ccc3sc(C[C@@H](C)N(C)C)nc3c2)cc1C(N)=O [Compound 1317] , its IC50 was 50 to 500 nM

====

tested-system: PRMT5 (Homo sapiens, UniProt O14744)
Construct: purchased Viva (custom protein)
assay-explanation: PRMT5 biochemical IC50 assay with MTA as cofactor
condition-details: PRMT5, MTA as cofactor; read-out: MTA IC50
metric-name: IC50

# compound Cc1cncc(NC(=O)C(=O)N2CCCC[C@H]2c2cccc(C)c2)c1 (single isomer, unassigned) ; its IC50 = 50 to 500 nM

Sure, the documented IC50 for C[C@H]1CC[C@H](c2cc[nH]n2)N(C(=O)C(=O)Nc2cncc(C(N)=O)c2)C1 (single isomer, unassigned) is 50 to 500 nM

Note to self: IC50 recorded for COc1ncc(NC(=O)C(=O)N2C[C@H](C)CC[C@H]2c2ccc3[nH]c(C)nc3c2)cc1C(N)=O (single isomer, unassigned) was < 50 nM

Recorded result, COc1ncc(NC(=O)C(=O)N2C[C@H](C)C(F)(F)C[C@H]2c2ccc(C)nc2)cc1C(N)=O (single isomer, unassigned) , IC50: > 500 nM

Reported IC50 for NC(=O)c1cncc(NC(=O)C(=O)N2CCCCC2C2CCCCC2)c1 (stereo not drawn) [Compound 101] was < 50 nM

Per the record, Cc1cc(NC(=O)C(=O)N2C[C@@H](C)CC[C@@H]2c2cscn2)cnc1N (single isomer, unassigned) has IC50 of < 50 nM

====

Listing: IC50 of selected molecules
tested-system: PRMT5 (Homo sapiens, UniProt O14744)
Construct: purchased Viva (custom protein)
assay-explanation: PRMT5 biochemical IC50 assay with MTA as cofactor
condition-details: PRMT5, MTA as cofactor; read-out: MTA IC50

Some solved cases for reference:
In [3]: df
Out[3]:
                                   molecule    data_value
0  C[C@@H]1CC[C@@H](c2cncc(-n3cccn3)c2)N(C(=O)C(=O)Nc2cncc(C(N)=O)c2)C1 (racemic)  50 to 500 nM
1  C[C@@H]1CC[C@@H](c2cc(F)cc(F)c2)N(C(=O)C(=O)Nc2cncc(C(N)=O)c2)C1 (racemic)  50 to 500 nM
2  C[C@@H]1CC[C@@H](c2ccccc2)N(C(=O)C(=O)Nc2cncc(C(N)=O)c2)[C@@H]1C (single isomer, unassigned) [Compound 435]      > 500 nM
3  C[C@H]1CN(C(=O)C(=O)Nc2cncc(C(N)=O)c2)[C@H](c2ccc(F)c(F)c2)CC1(F)F (single isomer, unassigned)       < 50 nM
4  Cc1ncc(NC(=O)C(=O)N2C[C@@H](C)CC[C@@H]2c2ccc3c(c2)CCC(=O)N3)cc1C(F)F (single isomer, unassigned)      > 500 nM

Record summary for COc1ncc(NC(=O)C(=O)N2C[C@@H](C)CC[C@@H]2c2ccc3c(c2)CC(=O)N3)cc1C(N)=O (single isomer, unassigned) : reported IC50 = < 50 nM

IC50 measured on Cc1cc(NC(=O)C(=O)N2C[C@H](C)CC[C@H]2c2cccc(C(F)(F)F)c2)cnc1N (single isomer, unassigned) = < 50 nM

get_value(item= CCc1cc(NC(=O)C(=O)N2C[C@H](C)CC[C@H]2c2ccc(N3CCN(C)CC3)cc2)cnc1N (single isomer, unassigned) , readout=IC50) returns > 500 nM

====

tested-system: PRMT5 (Homo sapiens, UniProt O14744)
Construct: purchased Viva (custom protein)
assay-explanation: PRMT5 biochemical IC50 assay with SAM as cofactor
condition-details: PRMT5, SAM as cofactor; read-out: SAM IC50
metric-name: IC50

Examples with answers:
                                   compound  metric_name      data_value
0  Cc1cc(NC(=O)C(=O)N2CCCC[C@H]2c2cccs2)cnc1N (single isomer, unassigned) [Compound 22]         IC50        > 0.5 µM
1  COc1ncc(NC(=O)C(=O)N2C[C@H](C)CC[C@H]2c2cccc3[nH]ncc23)cc1C(N)=O (single isomer, unassigned) [Compound 926]         IC50        > 0.5 µM
2  CCc1cc(NC(=O)C(=O)N2C[C@@H](C)CC[C@@H]2c2ccc3ccc(C4CCN(C)CC4)nc3c2)cnc1N [Compound 1365]         IC50  0.05 to 0.5 µM
3  COc1ncc(NC(=O)C(=O)N2C[C@@H](C)CC[C@H]2C2CCCC2)cc1C(N)=O (single isomer, unassigned) [Compound 295]         IC50        > 0.5 µM

Cc1ccc([C@@H]2CC[C@@H](C)CN2C(=O)C(=O)Nc2cnc(N)c(C)c2)cc1O (racemic) [Compound 580] yielded IC50 of 0.05 to 0.5 µM

Looking up C[C@@H]1CC[C@@H](c2ccc3c(c2)C[C@H](C)O3)N(C(=O)C(=O)Nc2cncc(C(N)=O)c2)C1 (single isomer, unassigned) [Compound 345] , I see its IC50 listed as 0.05 to 0.5 µM

Reported IC50 for Cc1cc(NC(=O)C(=O)N2C[C@@H](C)CC[C@@H]2c2ccc3snc(C)c3c2)cnc1N (single isomer, unassigned) [Compound 1166] was 0.05 to 0.5 µM

Lab note: measured IC50 of C[C@H]1CC[C@H](c2ccc(NS(C)(=O)=O)nc2)N(C(=O)C(=O)Nc2cncc(C(N)=O)c2)C1 (single isomer, unassigned) [Compound 985] was > 0.5 µM

====

Entries and their measured IC50 follow.
tested-system: PRMT5 (Homo sapiens)
Construct: purchased Viva (custom protein)
assay-explanation: PRMT5 biochemical IC50 assay with no cofactor
condition-details: PRMT5, no cofactor; read-out: No Cofactor/rel IC50

These recorded examples may help you get a feel for the data.
>>> print(df.to_string())
                                   compound         tested_system    data_value
0  Cc1c(NC(=O)C(=O)N2C[C@H](C)CC[C@H]2c2ccc(O)cc2)cnc(N)c1C (single isomer, unassigned) [Compound 391]  PRMT5 (Homo sapiens)      > 500 nM
1  CC(=O)N1CCC([C@@H]2CC[C@@H](C)CN2C(=O)C(=O)Nc2cnc(N)c(C)c2)CC1 (racemic) [Compound 737]  PRMT5 (Homo sapiens)  50 to 500 nM
2  CNC(=O)N1CCC([C@@H]2CC[C@@H](C)CN2C(=O)C(=O)Nc2cnc(N)c(C)c2)CC1 (racemic) [Compound 781]  PRMT5 (Homo sapiens)  50 to 500 nM
3  Cc1cc(NC(=O)C(=O)N2C[C@H](C)CC[C@H]2c2cccc3scnc23)cnc1N (single isomer, unassigned) [Compound 960]  PRMT5 (Homo sapiens)  50 to 500 nM
4  CNc1ccc([C@H]2CC[C@H](C)CN2C(=O)C(=O)Nc2cnc(N)c(C)c2)cn1 (single isomer, unassigned) [Compound 876]  PRMT5 (Homo sapiens)      > 500 nM

Moving on to the next compound.
// sample C[C@@H]1CC[C@@H](c2cccc(Cl)c2)N(C(=O)C(=O)Nc2cncc(C(N)=O)c2)C1 (racemic) [Compound 174] , its IC50 was 50 to 500 nM
